Tested on: PPARg:RXRa (NR concentration 180 nM, RXRa partner concentration 90 nM)
procedure-text: PBM binding z-score (relative to random genomic background probes); higher = stronger binding; sequences stand for … in GC…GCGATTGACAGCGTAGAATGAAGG
readout-name: PBM binding z-score
Give bare numbers.

TTACCAAGGTGAGCTGAGATCGTTGATCCAACTC	-0.0237

// each listed sequence needs a value for PBM binding z-score
1. ACTAGCAGGCCAAGTTTGGGTCACTTAAACAAAG
2. CCTCGGAGGGCAACAGGAGGTCAGAGCTGCCAGA
3. AGAACGAGGGCAATGAGTGGATAGCACGGGTGGC
4. TCTTGTAGATCAATAGAGGTTAAGTAAGTGCGCT
5. GCGAATGGGGCAAAGCAGGTTACCATAAGGTTGG

Reply:
1. 0.21
2. 0.969
3. 1.49
4. 0.0612
5. 0.647

----------
Please respond with reported PBM binding z-score for every item in the list.
System: VDR:RXRa (NR concentration 270 nM, RXRa partner concentration 90 nM)
procedure-text: PBM binding z-score (relative to random genomic background probes); higher = stronger binding; sequences stand for … in GC…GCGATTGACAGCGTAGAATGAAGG
Answers are plain numbers.

Consider the worked cases shown below.
TTACCAAGGTGTAGGTCGTTGATCCCTCTGTAGA	0.256
TCTATTAGTTGAAGGTCAACCGACGAGTCCGTTT	3.85
ATATGTAGGTTATGGGTCATTCAGGTTGGTTCGC	4.33
TCTTGTAGATCAATAGAGGTTGAGAAAGTGCGCT	0.789
AGTCAAAGTTCATCTAGCTAACGTAAGATATGCT	4.35
ACTAGCAGGCCAAGGGTTACTCAAGATTAGTCCG	0.0944
ATAGACAGGTGAGTGAAGGTAACTCAGCTGGACG	0.0461
GCGACTGGGGCAAAGCAGGTTACCACAAGGTTGG	0.0392

// each listed sequence needs a value for PBM binding z-score
1. AGAATGATGTTATACGTAGATCAGGGAAGAAAGT
2. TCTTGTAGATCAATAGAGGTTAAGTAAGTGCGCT
3. TAGCCTAGGTCATTGGGCCATTATAGTACGCATC

Reply:
-0.209
2.65
2.54

Ask: Item: TGAATGAGGTGATAAGATCAGGGAACGTTGCAAA Test system: VDR:RXRa (NR concentration 270 nM, RXRa partner concentration 90 nM) Read-out: PBM binding z-score Value: ?
Reply: -0.169

----------
System: VDR homodimer (NR concentration 270 nM)
procedure-text: PBM binding z-score (relative to random genomic background probes); higher = stronger binding; sequences stand for … in GC…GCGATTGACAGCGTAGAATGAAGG
readout-name: PBM binding z-score
Answers are plain numbers.

TCATATAGGTAAATGTGAAAGTCGAACGATATGA	0.207
TAGCCTCGGTCAGATCGGGCCAGTATACGCTATA	-1.63
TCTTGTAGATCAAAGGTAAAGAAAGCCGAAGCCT	-0.117

// each listed sequence needs a value for PBM binding z-score
1. TCATTTAGGTAAATGCTAGGTGAAAGTCCGATCT
2. GCGATTGGGGCAAAGCAGGTTACCATAAGGTTGG
3. ATCTCTAGGTAAAGTTCAGAGAAAGATCGATAGA
4. ATCTCTAGGTAAAGATACTTCAGTGAATGCAAAT
5. ACTATTAGTTGACTTAGGCCAACCGATACGACGC
6. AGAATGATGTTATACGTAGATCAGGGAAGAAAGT
7. CCTGCTAGGTCATGGTCAGTTAATCTACAGTATG
8. GCGACTGGGGCAAAGCAGGTTATCATAAGGTTGG

Reply:
0.0956
0.0482
2.03
0.371
0.435
-0.17
0.435
-0.46

Ask: Tell me the measured PBM binding z-score of CCTACTGGGCCAAAGGTCATTTATTCCAATGCTC , please.
Reply: 3.04
